# assay.comment: Metabolic stability in human liver microsomes assessed as compound remaining at 1 uM incubated for 30 mins by LC-MS/MS analysis
# Format: ADME, Microsome
# condition.set: read-out: Stabilty
property.label: remaining at 0.5 h, 1 µM (%)
Answers are plain numbers, in %.

Consider the worked cases shown below.
>  <compound.string>
CC(C)(C)NCc1cc(Cl)cc(Nc2nc3cc(F)c(F)cc3n2Cc2ccc(C(F)(F)F)cc2)c1O

>  <remaining at 0.5 h, 1 µM / %>
89

$$$$
>  <compound.string>
CCNCc1cc(C)cc(Nc2nc3ccccc3n2Cc2ccc(C(F)(F)F)cc2)c1O

>  <remaining at 0.5 h, 1 µM / %>
98

$$$$
>  <compound.string>
CC(C)(C)NCc1cc(Cl)cc(Nc2nc3ccccc3n2Cc2ccc(C(F)(F)F)cc2)c1O

>  <remaining at 0.5 h, 1 µM / %>
81

$$$$
>  <compound.string>
CCN(CC)Cc1cc(C)cc(Nc2nc3ccccc3n2Cc2ccc(C(F)(F)F)cc2)c1O

>  <remaining at 0.5 h, 1 µM / %>
36

$$$$
>  <compound.string>
Cc1cc(CNC(C)(C)C)c(O)c(Nc2nc3ccccc3n2Cc2ccc(C(F)(F)F)cc2)c1

>  <remaining at 0.5 h, 1 µM / %>
99

$$$$
>  <compound.string>
CCNCc1cc(Cl)cc(Nc2nc3ccccc3n2Cc2ccc(C(F)(F)F)cc2)c1O

>  <remaining at 0.5 h, 1 µM / %>
94

$$$$

Provide remaining at 0.5 h, 1 µM for all items below, preserving their order.
1. Cc1cc(CNC(C)(C)C)c(O)c(Nc2nc3cc(F)c(F)cc3n2Cc2ccc(C(F)(F)F)cc2)c1
2. CCNCc1cc(C)cc(Nc2nc3cc(F)c(F)cc3n2Cc2ccc(C(F)(F)F)cc2)c1O
3. CCNCc1cc(Cl)cc(Nc2nc3ccccc3[nH]2)c1O

*A*
1: 90; 2: 99; 3: 93

###

# System: Hemozoin
# assay.comment: Inhibition of Beta-hematin in early ring stage Plasmodium falciparum parasitized red blood cells assessed as hemozoin formation formation after 32 hrs by Giemsa staining based haemocytometric counting method
Activity calls are given as the source filed them. The calls are words filed in the database; no cut-off is given here.
API: response.call in 1 (yes) = active, 0 (no) = inactive

>  <compound.string>
CCNCc1cc(Cl)cc(Nc2nc3cc(F)c(F)cc3n2Cc2ccc(C(F)(F)F)cc2)c1O

>  <discrete.label>
0 (no)

$$$$
>  <compound.string>
CCNCc1cc(Cl)cc(Nc2nc3cc(F)c(F)cc3[nH]2)c1O

>  <discrete.label>
1 (yes)

$$$$
>  <compound.string>
CCNCc1cc(Cl)cc(Nc2nc3ccccc3n2Cc2ccc(C(F)(F)F)cc2)c1O

>  <discrete.label>
0 (no)

$$$$

Please look at the following molecule next.
*Q* Record lookup: outcome of this test for CCNCc1cc(Cl)cc(Nc2nc3ccccc3[nH]2)c1O ?
*A* 1 (yes)

###

# assay.comment: Half life in Balb/c mouse at 3 mg/kg, iv measured up to 24 hrs by LC-MS/MS analysis
# Format: ADME, organism-based
# condition.set: in vivo
property.label: half-life
Put down the number, then write its unit next to it.

*Q* Reported half-life for CCNCc1cc(Cl)cc(Nc2nc3cc(F)c(F)cc3n2Cc2ccc(C(F)(F)F)cc2)c1O : what is it?
*A* 6.3 h

###

# Test system: Plasmodium falciparum
# assay.comment: Antimalarial activity against asexual blood stage multi drug-resistant Plasmodium falciparum K1 infected in erythrocytes assessed as reduction in parasitemia incubated up to 72 hrs by [3H]hypoxanthine incorporation assay
# Format: functional, organism-based
Provide the recorded pIC50 for the entries that follow.
Numbers only, as −log10 of the molar value.

Consider the worked cases shown below.
>  <compound.string>
CCN(CC)Cc1ccc(C)c(Nc2nc3ccccc3n2Cc2ccc(C(F)(F)F)cc2)c1O

>  <numeric.value>
6.03

$$$$
>  <compound.string>
CCN(CC)Cc1ccc(C)c(Nc2nc3ccccc3n2Cc2ccc(F)cc2)c1O

>  <numeric.value>
5.88

$$$$
>  <compound.string>
CCN(CC)Cc1c(Cl)ccc(Nc2nc3ccccc3n2Cc2ccc(C(F)(F)F)cc2)c1O

>  <numeric.value>
6.42

$$$$
>  <compound.string>
CCN(CC)Cc1cc(Cl)cc(Nc2nc3ccccc3n2Cc2ccc(C(F)(F)F)cc2)c1O

>  <numeric.value>
7.30

$$$$
>  <compound.string>
Cc1cc(CNC(C)(C)C)c(O)c(Nc2nc3c(Cl)cc(Cl)cc3[nH]2)c1

>  <numeric.value>
6.40

$$$$
>  <compound.string>
CCN(CC)Cc1cc(C)cc(Nc2nc3ccccc3n2Cc2ccc(C#N)cc2)c1O

>  <numeric.value>
6.34

$$$$

Provide pIC50 for all items below, preserving their order.
1. Cc1cc(CNC(C)(C)C)c(O)c(Nc2nc3ccccc3n2Cc2ccc(C(F)(F)F)cc2)c1
2. CCN(CC)Cc1ccc(C)c(Nc2nc3ccccc3[nH]2)c1O
3. CC(C)(C)NCc1cc(Cl)cc(Nc2nc3ccccc3n2Cc2ccc(C(F)(F)F)cc2)c1O
4. CCN(CC)Cc1cccc(Nc2nc3ccccc3[nH]2)c1O
5. CCN(CC)Cc1ccc(Nc2nc3ccccc3n2Cc2ccc(C(F)(F)F)cc2)cc1O
6. CCN(CC)Cc1cc(F)cc(Nc2nc3ccccc3n2Cc2ccc(C(F)(F)F)cc2)c1O

*A*
[6.64, 5.79, 7.22, 6.11, 6.06, 6.72]

Provide pIC50 for all items below, preserving their order.
1. CCN(CC)Cc1ccc(C)c(Nc2nc3ccccc3n2Cc2ccc(C#N)cc2)c1O
2. CC(C)(C)NCc1cc(Cl)cc(Nc2nc3ccccc3[nH]2)c1O
3. CCN(CC)Cc1cccc(Nc2nc3ccccc3n2Cc2ccc(C#N)cc2)c1O
4. CCNCc1cc(Cl)cc(Nc2nc3ccccc3[nH]2)c1O

*A*
1: 6.08; 2: 6.20; 3: 6.18; 4: 6.06

Provide pIC50 for all items below, preserving their order.
1. CCNCc1cc(C)cc(Nc2nc3ccccc3n2Cc2ccc(C(F)(F)F)cc2)c1O
2. Cc1cc(CNC(C)(C)C)c(O)c(Nc2nc3ccccc3[nH]2)c1
3. CC(C)(C)NCc1cc(Cl)cc(Nc2nc3cc(F)c(F)cc3n2Cc2ccc(C(F)(F)F)cc2)c1O
4. CC(C)(C)NCc1cc(C(C)(C)C)cc(Nc2nc3cc(F)c(F)cc3[nH]2)c1O
5. CCN(CC)Cc1cc(Nc2nc3ccccc3n2Cc2ccc(C#N)cc2)ccc1O

*A*
1. 6.52
2. 6.10
3. 7.05
4. 6.55
5. 5.71

###

Provide the recorded remaining at 0.5 h, 1 µM for the entries that follow.
# assay.comment: Metabolic stability in rat liver microsomes assessed as compound remaining at 1 uM incubated for 30 mins by LC-MS/MS analysis
# Format: ADME, Microsome
# condition.set: read-out: Stabilty
One number for each entry, in %.

Consider the worked cases shown below.
>  <compound.string>
CCNCc1cc(Cl)cc(Nc2nc3ccccc3[nH]2)c1O

>  <remaining at 0.5 h, 1 µM / %>
98

$$$$
>  <compound.string>
Cc1cc(CNC(C)(C)C)c(O)c(Nc2nc3ccccc3n2Cc2ccc(C(F)(F)F)cc2)c1

>  <remaining at 0.5 h, 1 µM / %>
41

$$$$
>  <compound.string>
CC(C)(C)NCc1cc(Cl)cc(Nc2nc3ccccc3n2Cc2ccc(C(F)(F)F)cc2)c1O

>  <remaining at 0.5 h, 1 µM / %>
9

$$$$
>  <compound.string>
CCNCc1cc(Cl)cc(Nc2nc3ccccc3n2Cc2ccc(C(F)(F)F)cc2)c1O

>  <remaining at 0.5 h, 1 µM / %>
66

$$$$
>  <compound.string>
CCNCc1cc(Cl)cc(Nc2nc3cc(F)c(F)cc3n2Cc2ccc(C(F)(F)F)cc2)c1O

>  <remaining at 0.5 h, 1 µM / %>
98

$$$$
>  <compound.string>
CCNCc1cc(C)cc(Nc2nc3cc(F)c(F)cc3n2Cc2ccc(C(F)(F)F)cc2)c1O

>  <remaining at 0.5 h, 1 µM / %>
77

$$$$
>  <compound.string>
CCNCc1cc(C)cc(Nc2nc3ccccc3n2Cc2ccc(C(F)(F)F)cc2)c1O

>  <remaining at 0.5 h, 1 µM / %>
51

$$$$
>  <compound.string>
CC(C)(C)NCc1cc(Cl)cc(Nc2nc3cc(F)c(F)cc3n2Cc2ccc(C(F)(F)F)cc2)c1O

>  <remaining at 0.5 h, 1 µM / %>
94

$$$$

*Q* Reported remaining at 0.5 h, 1 µM for Cc1cc(CNC(C)(C)C)c(O)c(Nc2nc3cc(F)c(F)cc3n2Cc2ccc(C(F)(F)F)cc2)c1 : what is it?
*A* 89

###

Provide the recorded Ratio IC50 for the entries that follow.
# assay.comment: Resistance index, ratio of IC50 for antimalarial activity against asexual blood stage multi drug-resistant Plasmodium falciparum K1 to IC50 for antimalarial activity against asexual blood stage drug-sensitive Plasmodium falciparum NF54
# Assay type: functional
One number for each entry.

Consider the worked cases shown below.
>  <compound.string>
CCN(CC)Cc1cc(Nc2nc3ccccc3n2Cc2ccc(C(F)(F)F)cc2)ccc1O

>  <numeric.value>
4.33

$$$$
>  <compound.string>
CCN(CC)Cc1cc(C)cc(Nc2nc3ccccc3n2Cc2ccc(C#N)cc2)c1O

>  <numeric.value>
0.71

$$$$
>  <compound.string>
CCN(CC)Cc1cc(C)cc(Nc2nc3ccccc3n2Cc2ccc(C(F)(F)F)cc2)c1O

>  <numeric.value>
0.32

$$$$
>  <compound.string>
CCN(CC)Cc1cc(Nc2nc3ccccc3[nH]2)ccc1O

>  <numeric.value>
9.09

$$$$
>  <compound.string>
CC(C)(C)NCc1cc(C(C)(C)C)cc(Nc2nc3ccccc3[nH]2)c1O

>  <numeric.value>
3.12

$$$$
>  <compound.string>
CCN(CC)Cc1cccc(Nc2nc3ccccc3n2Cc2ccc(C#N)cc2)c1O

>  <numeric.value>
0.66

$$$$
>  <compound.string>
Cc1cc(CNC(C)(C)C)c(O)c(Nc2nc3cc(F)c(F)cc3[nH]2)c1

>  <numeric.value>
3.19

$$$$
>  <compound.string>
CCNCc1cc(Cl)cc(Nc2nc3cc(F)c(F)cc3[nH]2)c1O

>  <numeric.value>
3.12

$$$$
>  <compound.string>
CC(C)(C)NCc1cc(Cl)cc(Nc2nc3cc(F)c(F)cc3[nH]2)c1O

>  <numeric.value>
2.4

$$$$

Next, consider the following compound.
*Q* Reported Ratio IC50 for Cc1cc(CNC(C)(C)C)c(O)c(Nc2nc3c(Cl)cc(Cl)cc3[nH]2)c1 : what is it?
*A* 1.81
